target: human αVβ6 (Homo sapiens, UniProt P06756+P18564); assay: human αVβ6 HTRF binding assay; settings: alternatively SPA-based assay
Sequence (P06756 31-992 limits assumed): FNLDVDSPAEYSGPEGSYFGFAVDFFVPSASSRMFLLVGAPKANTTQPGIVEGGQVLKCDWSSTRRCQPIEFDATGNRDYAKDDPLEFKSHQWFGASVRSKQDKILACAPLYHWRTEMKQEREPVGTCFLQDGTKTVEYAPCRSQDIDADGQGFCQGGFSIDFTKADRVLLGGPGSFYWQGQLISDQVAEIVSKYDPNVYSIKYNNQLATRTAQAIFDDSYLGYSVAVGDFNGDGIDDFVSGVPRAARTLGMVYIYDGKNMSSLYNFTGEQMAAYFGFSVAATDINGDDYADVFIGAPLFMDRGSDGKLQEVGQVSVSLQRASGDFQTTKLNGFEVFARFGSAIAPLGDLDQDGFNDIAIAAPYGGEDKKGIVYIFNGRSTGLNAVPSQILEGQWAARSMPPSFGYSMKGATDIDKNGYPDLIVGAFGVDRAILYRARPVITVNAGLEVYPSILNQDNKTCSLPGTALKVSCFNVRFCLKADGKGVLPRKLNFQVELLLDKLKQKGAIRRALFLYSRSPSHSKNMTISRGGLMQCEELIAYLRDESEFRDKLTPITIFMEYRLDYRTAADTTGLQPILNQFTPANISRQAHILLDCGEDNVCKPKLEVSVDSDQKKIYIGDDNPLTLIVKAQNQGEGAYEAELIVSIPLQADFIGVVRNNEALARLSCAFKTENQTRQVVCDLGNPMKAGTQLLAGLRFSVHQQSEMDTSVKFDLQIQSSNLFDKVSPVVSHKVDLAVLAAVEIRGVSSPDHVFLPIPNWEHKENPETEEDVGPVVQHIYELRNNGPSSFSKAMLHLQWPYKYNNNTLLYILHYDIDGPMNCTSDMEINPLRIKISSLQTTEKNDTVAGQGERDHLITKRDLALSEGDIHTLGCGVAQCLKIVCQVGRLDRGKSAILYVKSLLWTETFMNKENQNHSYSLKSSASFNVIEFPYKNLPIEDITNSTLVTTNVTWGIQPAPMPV
Sequence (P18564 22-707 limits assumed): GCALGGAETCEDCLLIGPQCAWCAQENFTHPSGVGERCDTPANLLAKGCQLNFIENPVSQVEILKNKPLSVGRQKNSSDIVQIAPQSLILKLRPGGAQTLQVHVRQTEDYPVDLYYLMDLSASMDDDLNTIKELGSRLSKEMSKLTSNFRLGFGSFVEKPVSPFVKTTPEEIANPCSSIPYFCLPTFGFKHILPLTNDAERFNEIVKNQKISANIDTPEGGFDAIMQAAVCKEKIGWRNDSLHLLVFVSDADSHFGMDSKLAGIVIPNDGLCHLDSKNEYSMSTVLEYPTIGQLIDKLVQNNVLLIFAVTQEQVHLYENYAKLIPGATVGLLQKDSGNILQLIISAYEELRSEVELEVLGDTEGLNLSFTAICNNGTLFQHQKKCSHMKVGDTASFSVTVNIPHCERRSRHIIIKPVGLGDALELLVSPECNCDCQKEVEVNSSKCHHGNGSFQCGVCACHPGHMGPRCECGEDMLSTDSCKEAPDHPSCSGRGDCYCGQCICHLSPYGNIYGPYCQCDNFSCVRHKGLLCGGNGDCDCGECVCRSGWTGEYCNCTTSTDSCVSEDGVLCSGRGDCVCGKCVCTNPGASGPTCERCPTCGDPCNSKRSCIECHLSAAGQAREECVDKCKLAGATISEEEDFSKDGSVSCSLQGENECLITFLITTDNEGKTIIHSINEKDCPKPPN
Structures can show the parent of a compound that is named as a salt.
Threshold 20 nM. IC50 below it: satisfied. IC50 at it or above: not satisfied.

# count of solved cases: 6
{"compound": "Cc1ncc([C@@H](CC(=O)O)N2CC(COCCc3ccc4c(n3)NCCC4)C2)cn1 [example 128]", "label": "not satisfied"}
{"compound": "O=C(O)C[C@H](NC(=O)C1CC2(C1)CN(C(=O)CCc1ccc3c(n1)NCCC3)C2)c1cc(Cl)cc(Cl)c1 [Example 1, TFA]", "label": "not satisfied"}
{"compound": "COc1ccc(C(NC(=O)C2CC(CCc3ccc4c(n3)NCCC4)C2)C(C)(C)C(=O)O)cn1 (single isomer, unassigned) [Example 190]", "label": "not satisfied"}
{"compound": "CC1(CCCCc2ccc3c(n2)NCCC3)CN([C@@H](CC(=O)O)c2ccc(F)c(F)c2)C1 [Example 161]", "label": "satisfied"}
{"compound": "COc1ccc([C@H](CC(=O)O)NC(=O)N2CC(F)(CCc3ccc4c(n3)NCCC4)C2)cc1F [Example 76]", "label": "satisfied"}
{"compound": "COc1ccc([C@H](CC(=O)O)N2CC(c3ccc(-c4ccc5c(n4)NCCC5)cc3)C2=O)cn1 (single isomer, unassigned) [Example 184]", "label": "satisfied"}

Lab note: IC50 threshold 20 nM. Does this compound come in strictly under it? O=C(O)C[C@@H](c1cc(Cl)cc(Cl)c1)N1CC(CCCCc2ccc3c(n2)NCCC3)C1=O (some centres unmarked) [Example 108]
satisfied

Report whether reported IC50 is lower than 20 nM (strictly) for O=C(N[C@@H](CNC(=O)[C@H]1C[C@H](CCc2ccc3c(n2)NCCC3)C1)C(=O)O)OCc1ccccc1 [Example 78]
satisfied

Consider COc1ccc([C@@H](CC(=O)O)C2(F)CN(C(=O)CCCc3ccc4c(n3)NCCC4)C2)cc1F [Example 95] . Does its IC50 lie strictly below 20 nM?
not satisfied

Would you kindly verify if IC50 of COc1ccc([C@H](CC(=O)O)C2(F)CN(C(=O)CCCc3ccc4c(n3)NCCC4)C2)cn1 (single isomer, unassigned) [Example 17] is strictly less than 20 nM?
not satisfied

----------
biological target: human αVβ3 (Homo sapiens, UniProt P05106+P06756); test: human αVβ3 HTRF binding assay; conditions: alternatively SPA-based assay
Sequence (P06756 31-992 limits assumed): as the sequence (P06756 31-992 limits assumed) above
Sequence (P05106 27-718 limits assumed): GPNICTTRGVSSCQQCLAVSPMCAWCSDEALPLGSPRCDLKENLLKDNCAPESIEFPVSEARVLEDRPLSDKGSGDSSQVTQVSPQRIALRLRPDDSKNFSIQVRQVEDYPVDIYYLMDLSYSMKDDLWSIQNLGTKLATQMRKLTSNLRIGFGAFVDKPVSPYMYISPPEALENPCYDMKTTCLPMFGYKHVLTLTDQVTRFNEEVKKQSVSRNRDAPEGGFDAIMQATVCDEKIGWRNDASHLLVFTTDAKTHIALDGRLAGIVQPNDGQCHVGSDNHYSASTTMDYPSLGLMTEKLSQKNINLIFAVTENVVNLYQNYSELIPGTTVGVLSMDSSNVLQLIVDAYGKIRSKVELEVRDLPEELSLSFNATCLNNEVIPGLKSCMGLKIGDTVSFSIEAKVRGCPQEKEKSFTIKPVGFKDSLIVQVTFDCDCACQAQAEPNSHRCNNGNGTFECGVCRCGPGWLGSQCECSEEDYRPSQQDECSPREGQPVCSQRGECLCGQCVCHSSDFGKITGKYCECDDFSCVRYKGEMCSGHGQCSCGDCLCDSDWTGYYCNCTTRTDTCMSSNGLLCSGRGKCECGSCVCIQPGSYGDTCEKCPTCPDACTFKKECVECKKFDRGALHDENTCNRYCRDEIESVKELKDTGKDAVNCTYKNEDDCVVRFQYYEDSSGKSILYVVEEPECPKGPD
parameter: IC50 (nM)
Use nM as the unit, but write only the number.

Below, 5 compounds whose answers are already recorded.
{"compound": "Cc1cc(C)c(S(=O)(=O)N[C@@H](CNC(=O)[C@H]2C[C@@H](CCc3ccc4c(n3)NCCC4)C2)C(=O)O)c(C)c1", "IC50 / nM": 2.1}
{"compound": "Cc1cc(C)c(S(=O)(=O)N[C@@H](CNC(=O)C2(F)CN(CCc3ccc4c(n3)NCCC4)C2)C(=O)O)c(C)c1", "IC50 / nM": 4.1}
{"compound": "COc1ncc([C@H](CC(=O)O)NC(=O)[C@H]2C[C@H](CCc3ccc4c(n3)NCCC4)C2)cn1", "IC50 / nM": 4.2}
{"compound": "COc1ccc([C@H](CC(=O)O)NC(=O)N2CC(CCc3ccc4c(n3)NCCC4)C2)cc1F", "IC50 / nM": 2.8}
{"compound": "Cc1ncc([C@H](CC(=O)O)NC(=O)[C@H]2C[C@H](CCc3ccc4c(n3)NCCC4)C2)cn1", "IC50 / nM": 2.7}

Supply measured IC50 of Cc1cc(C)c(S(=O)(=O)N[C@@H](CNC(=O)[C@H]2C[C@H](CCc3ccc4c(n3)NCCC4)C2)C(=O)O)c(C)c1 in your reply.
2.08

Determine from records and report IC50 for COc1ccc([C@H](CC(=O)O)N2CC(CCCCc3ccc4c(n3)NCCC4)C2=O)cn1 (stereo partly shown)
1.8

----------
Collected pIC50 values appear next to each entry.
molecular target: human αVβ6 (Homo sapiens, UniProt P06756+P18564); assay: human αVβ6 HTRF binding assay; details: alternatively SPA-based assay
Formally, pIC50 is defined as -log10 of the concentration c, with c in mol/L.

See these solved cases before continuing.
{"compound": "CCOC(=O)[C@H](CNC(=O)C1CC2(C1)CN(CCc1ccc3c(n1)NCCC3)C2)NS(=O)(=O)c1c(C)cc(C)cc1C", "system_under_test": "human αVβ6 (Homo sapiens, UniProt P06756+P18564)", "value_measured": 6.80}
{"compound": "Cc1cc(C)n(-c2cccc(C(CC(=O)O)N3CC4(CC(Cc5ccc6c(n5)NCCC6)C4)C3)c2)n1 (stereo not drawn)", "system_under_test": "human αVβ6 (Homo sapiens, UniProt P06756+P18564)", "value_measured": 8.44}
{"compound": "CCOC(=O)C[C@H](NC(=O)C1CN(CCc2ccc3c(n2)NCCC3)C1)c1ccc(OC)nc1", "system_under_test": "human αVβ6 (Homo sapiens, UniProt P06756+P18564)", "value_measured": 6.40}
{"compound": "COc1ccc(C(CC(=O)O)C2CC(NCCCc3ccc4c(n3)NCCC4)C2)cc1F (stereo not drawn)", "system_under_test": "human αVβ6 (Homo sapiens, UniProt P06756+P18564)", "value_measured": 8.38}
{"compound": "COc1ccc([C@H](CC(=O)O)NC(=O)[C@H]2C[C@H](CCc3ccc4c(n3)NCCC4)C2)cn1", "system_under_test": "human αVβ6 (Homo sapiens, UniProt P06756+P18564)", "value_measured": 9.19}

Now consider a different compound.
Tell us which pIC50 value is on record for Cc1ncc([C@H](CC(=O)O)N2CC(COCCc3ccc4c(n3)NCCC4)C2)cn1
8.49

----------
Quick list: pIC50 per entry.
target: human αVβ6 (Homo sapiens, UniProt P06756+P18564); assay: human αVβ6 HTRF binding assay; conditions: alternatively SPA-based assay
Where a name gives a salt, the structure may show the parent alone.
# reply with the number alone; pIC50 is -log10 of concentration in mol/L

Recorded pIC50, per entry:
{"compound": "O=C(O)CC(c1cnc2ccccc2c1)C1CC2(C1)CN(CCCc1ccc3c(n1)NCCC3)C2 (stereo not shown)", "value_measured": 8.57}
{"compound": "Cc1ncc(C(CC(=O)O)N2CC(COCCc3ccc4c(n3)NCCC4)C2)cn1 (stereo not shown) [Example 127, TFA]", "value_measured": 8.10}
{"compound": "O=C(N[C@@H](CNC(=O)[C@H]1C[C@@H](Cc2ccc3c(n2)NCCC3)C1)C(=O)O)OCc1cccc(F)c1 (relative stereo)", "value_measured": 6.71}

Moving on to another compound below.
Using the record for COc1ccc(C(CC(=O)O)C2CC3(C2)CN(CCCc2ccc4c(n2)NCCC4)C3)cn1 (stereo not shown) , state its measured pIC50.
8.23

----------
molecular target: human αVβ6 (Homo sapiens, UniProt P06756+P18564); experiment: human αVβ6 HTRF binding assay; details: alternatively SPA-based assay
Examples of compounds with documented log10(IC50) follow.
Would you kindly interpret these values as log10 of IC50 expressed in nM?

Below, 5 compounds whose answers are already recorded.
{"compound": "O=C(O)[C@H](CN1CC(CCCc2ccc3c(n2)NCCC3)C1=O)NS(=O)(=O)c1ccc(F)cc1 (single isomer, unassigned) [Example 188]", "parameter": "log10(IC50)", "value_measured": 0.52}
{"compound": "Cc1cc(C)c(S(=O)(=O)N[C@@H](CNC(=O)[C@H]2C[C@@H](CCc3ccc4c(n3)NCCC4)C2)C(=O)O)c(C)c1", "parameter": "log10(IC50)", "value_measured": -0.48}
{"compound": "Cc1ncc([C@H](CC(=O)O)NC(=O)[C@H]2C[C@@H](CCc3ccc4c(n3)NCCC4)C2)cn1", "parameter": "log10(IC50)", "value_measured": 0.04}
{"compound": "O=C(O)C[C@@H](c1cnc2ccccc2c1)N1CC(CCCCc2ccc3c(n2)NCCC3)C1", "parameter": "log10(IC50)", "value_measured": 0.04}
{"compound": "O=C(O)C[C@H](NC(=O)N1CC(CCc2ccc3c(n2)NCCC3)C1)c1cncnc1", "parameter": "log10(IC50)", "value_measured": 0.79}

Kindly indicate its recorded log10(IC50). Item: O=C(O)C[C@H](NC(=O)C1CC2(CC(NC(=O)CCc3ccc4c(n3)NCCC4)C2)C1)c1cc(Cl)cc(Cl)c1 (stereo partly drawn) [Example 30]
3.52

Specify measured log10(IC50) for O=C(O)C[C@@H](c1cncnc1)N1CC(CCCCc2ccc3c(n2)NCCC3)C1 .
0.48

Return log10(IC50) (reported value) for this compound: O=C(O)CC(c1cccc(N2CCOCC2)c1)C1CC2(CC(CCc3ccc4c(n3)NCCC4)C2)C1 (stereo not drawn)
0.43

Given O=C(O)C[C@H](NC(=O)N1CC(CCc2ccc3c(n2)NCCC3)C1)c1ccc2c(c1)OCC2 , respond with its log10(IC50).
-0.19

Entry source: patent US11639353B2
